target or test system: Mitogen-activated protein kinase 10 (Homo sapiens)
Sequence (P53779 whole entry): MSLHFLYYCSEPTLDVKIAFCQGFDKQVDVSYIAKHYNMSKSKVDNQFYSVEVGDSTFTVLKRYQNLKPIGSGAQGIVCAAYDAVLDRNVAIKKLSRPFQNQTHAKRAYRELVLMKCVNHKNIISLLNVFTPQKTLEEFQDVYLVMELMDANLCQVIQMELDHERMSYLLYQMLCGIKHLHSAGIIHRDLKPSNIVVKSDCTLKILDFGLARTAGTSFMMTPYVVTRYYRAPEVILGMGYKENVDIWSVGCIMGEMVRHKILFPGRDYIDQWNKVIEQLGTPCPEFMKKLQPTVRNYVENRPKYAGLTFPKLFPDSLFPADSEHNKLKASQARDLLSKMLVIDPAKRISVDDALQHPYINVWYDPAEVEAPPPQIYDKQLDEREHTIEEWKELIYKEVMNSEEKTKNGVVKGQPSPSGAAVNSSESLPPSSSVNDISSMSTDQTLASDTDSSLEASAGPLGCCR
assay text: Inhibition of JNK3 (unknown origin) using ATF2 as substrate incubated for 40 mins in presence of [gamma33P]ATP by scintillation counting analysis
For each entry below, report its IC50 value.
Numbers only; they are read as nM.

Input CCOC(=O)C1Cc2nc(-c3ccc(F)c(C(F)(F)F)c3)n(-c3ccnc(N[C@@H]4CCN(C(=O)C5CC5)C4)n3)c2C1 (some centres undefined) . Output IC50: 63.1

For CNC(=O)C1Cc2nc(-c3ccc(F)c(C(F)(F)F)c3)n(-c3ccnc(N[C@H]4CCN(C(=O)C5CC5)C4)n3)c2C1 (some centres undefined) the compound record lists IC50 as 601

Data point: NC(=O)C1Cc2nc(-c3ccc(Cl)c(Cl)c3)n(-c3ccnc(N[C@H]4CCN(C(=O)C5CC5)C4)n3)c2C1 (some centres undefined) ; IC50 = 15.4

Per the record, CCOC(=O)C1Cc2nc(-c3ccc4ccccc4c3)n(-c3ccnc(N[C@@H]4CCN(C(=O)C5CC5)C4)n3)c2C1 (some centres undefined) has IC50 of 6.82
